Exercise: for every item that follows, state its recorded 20-μm pattern line width.
# Assay Method Text: Evaluation 1: 20-μm pattern line width of transparent photosensitive composition
# Experimental Parameters: transparent composition, initiator 0.4 mmol; exposure energy quantity 10 mJ/cm^2
Please reply with the value in numeric form only.

Problem: Looking for the measured 20-μm pattern line width of CCCCCCC1(CCCCCC)c2cc(C(=O)c3ccccc3C)ccc2-c2ccc(C(C)=NOC(C)=O)cc21 [Compound 6] , can you help?
Solution: 19.7

Problem: // 20-μm pattern line width lookup, key: CCCCCCC1(CCCCCC)c2cc(C(=O)c3ccc(F)cc3)ccc2-c2ccc(/C(CC(C)N(OC(C)=O)C(C)=O)=N\OC(C)=O)cc21 (stereo not drawn) [Compound 9]
Solution: 19.9

Problem: What value of 20-μm pattern line width has been recorded for this entry: CCCCCCC1(CCCCCC)c2cc(C(=O)c3cccs3)ccc2-c2ccc(C(CC(C)N(OC(C)=O)C(C)=O)=NOC(C)=O)cc21 (racemic) [Compound 11]
Solution: 19.9

Problem: Would you kindly share the measured 20-μm pattern line width for CCCC1(CCC)c2cc(C(C)=NOC(C)=O)ccc2-c2ccc([N+](=O)[O-])cc21 [Compound D-3] ?
Solution: 20.9

Problem: Would you mind telling me what 20-μm pattern line width value was observed for CCCCCCC1(CCCCCC)c2cc(C(=O)c3ccccc3)ccc2-c2ccc(C(C)=NOC(C)=O)cc21 [Compound 8] ?
Solution: 19.6

Problem: Could you tell me which 20-μm pattern line width is on file for CCCCCCC1(CCCCCC)c2cc(C(=O)c3ccc([N+](=O)[O-])cc3)ccc2-c2ccc(C(CC(C)N(OC(C)=O)C(C)=O)=NOC(C)=O)cc21 (racemic) [Compound 12] ?
Solution: 19.8

====

# Assay Method Text: Evaluation 1: 20-μm pattern line width of transparent photosensitive composition
# Experimental Parameters: transparent composition, initiator 0.4 mmol; exposure energy quantity 10 mJ/cm^2
Assign 20-μm pattern line width to each entry below.
Give the figure only, with no unit attached.

Problem: Find the recorded 20-μm pattern line width belonging to CCCC1(CCC)c2cc(C(CCCSc3ccc(Cl)cc3)=NOC(C)=O)ccc2-c2ccc([N+](=O)[O-])cc21 and report it.
Solution: 20.6

Problem: Need 20-μm pattern line width, item CCCC1(CCC)c2cc(C(CCCCl)=NOC(C)=O)ccc2-c2ccc([N+](=O)[O-])cc21
Solution: 20.6

Problem: 20-μm pattern line width for CCCC1(CCC)c2cc(C(=O)/C(C)=N/OC(C)=O)ccc2-c2ccc(C(=O)c3ccc([N+](=O)[O-])cc3)cc21 ?
Solution: 19.5

Problem: Which 20-μm pattern line width is reported for this compound? CCCC1(CCC)c2cc(C(=O)c3ccc([N+](=O)[O-])cc3)ccc2-c2ccc(C(=NOC(C)=O)C(C)C)cc21 (mixture of isomers)
Solution: 19.7

Problem: Suppose we examine the compound CCCC1(CCC)c2cc(C(=O)c3ccccc3C)ccc2-c2ccc(/C(C)=N/OC(C)=O)cc21 ; what 20-μm pattern line width value has been reported?
Solution: 19.4

Problem: Look up 20-μm pattern line width for this compound: CCCC1(CCC)c2cc(C(=O)c3ccc([N+](=O)[O-])cc3)ccc2-c2ccc(C(C)=NOC(C)=O)cc21
Solution: 20.2

Problem: What value of 20-μm pattern line width has been recorded for this entry: CCCC1(CCC)c2cc(C(=NOC(C)=O)c3ccccc3)ccc2-c2ccc([N+](=O)[O-])cc21
Solution: 20.2

====

# Assay Method Text: Average transmittance of composition
# Assay type: physicochemical
# Experimental Parameters: photosensitive composition, quartz cell, optical path length 1 cm
Label 1.0 when Average transmittance (700 nm to 400 nm) Solution is strictly below 90%; at or above that, label 0.0.

Problem: Regarding CCCC1(CCC)c2cc(C(=NOC(C)=O)c3ccccc3)ccc2-c2ccc([N+](=O)[O-])cc21 , kindly confirm whether its Average transmittance (700 nm to 400 nm) Solution is beneath 90%.
Solution: 1.0

Problem: # TODO verify Average transmittance (700 nm to 400 nm) Solution < 90% strictly for this compound: CCn1c2ccc(/C(=N\OC(C)=O)c3ccc(OC(C)COC)cc3C)cc2c2cc([N+](=O)[O-])ccc21 (stereo not drawn) [Compound C-2, reference compound]
Solution: 1.0

Problem: Quick check: Average transmittance (700 nm to 400 nm) Solution of CCCCCCC1(CCCCCC)c2cc(C(=O)c3ccccc3)ccc2-c2ccc(C(C)=NOC(C)=O)cc21 under 90%?
Solution: 0.0

Problem: I wonder whether CCCCCCC1(CCCCCC)c2cc(C(=O)c3cccs3)ccc2-c2ccc(C(CC(C)N(OC(C)=O)C(C)=O)=NOC(C)=O)cc21 (racemic) has Average transmittance (700 nm to 400 nm) Solution below 90%. Can you tell?
Solution: 0.0

Problem: Find out if reported Average transmittance (700 nm to 400 nm) Solution for CCCCCCC1(CCCCCC)c2cc(C(=O)c3ccc(F)cc3)ccc2-c2ccc(/C(CC(C)N(OC(C)=O)C(C)=O)=N\OC(C)=O)cc21 (stereo not drawn) is less than 90%
Solution: 0.0

Problem: For this compound, is Average transmittance (700 nm to 400 nm) Solution lower than 90%? CCCC1(CCC)c2cc(C(=O)C(CCSc3ccc(Cl)cc3)=NOC(C)=O)ccc2-c2ccc([N+](=O)[O-])cc21
Solution: 1.0

====

# Assay Method Text: Evaluation 3: 20-μm pattern line width of black photosensitive composition
# Experimental Parameters: black composition (carbon black, cardo resin), initiator 0.4 mmol; 40 mJ/cm^2
Assign 20-μm pattern line width to each entry below.
No unit in the answer, only the number.

Problem: May I ask what 20-μm pattern line width has been recorded for CCCC1(CCC)c2cc(C(=NOC(C)=O)c3ccc(C(C)(C)C)cc3)ccc2-c2ccc([N+](=O)[O-])cc21 [Compound D-2] ?
Solution: 21.6

Problem: I am curious: what 20-μm pattern line width value has been reported for CCCC1(CCC)c2cc(C(CCCCl)=NOC(C)=O)ccc2-c2ccc([N+](=O)[O-])cc21 [Compound D-12] ?
Solution: 21.6

Problem: Give its 20-μm pattern line width value. Item: CCCC1(CCC)c2cc(C(=O)/C(C)=N/OC(C)=O)ccc2-c2ccc(C(=O)c3ccc([N+](=O)[O-])cc3)cc21 [Compound D-9]
Solution: 20.1

Problem: Fill blank: measured 20-μm pattern line width of the compound CCCC1(CCC)c2cc(C(=O)C(CCSc3ccc(Cl)cc3)=NOC(C)=O)ccc2-c2ccc([N+](=O)[O-])cc21 [Compound D-15] is ____.
Solution: 20.7

====

# Assay Method Text: Decomposition point by thermal analysis (TG-DTA)
# Assay type: physicochemical
# Experimental Parameters: 5.0 mg
Measurement Kind: Decomposition point (°C)
Please respond with the number in °C and leave the unit unwritten.

Problem: Tell me the measured Decomposition point of CCCC1(CCC)c2cc(C(=NOC(C)=O)c3ccccc3)ccc2-c2ccc([N+](=O)[O-])cc21 [Compound D-1] , please.
Solution: 273.4

Problem: Quick check: Decomposition point of CCCC1(CCC)c2cc(C(C)=NOC(C)=O)ccc2-c2ccc([N+](=O)[O-])cc21 [Compound D-3] ?
Solution: 272.2

Problem: # Decomposition point lookup, item CCCCCCC1(CCCCCC)c2cc(C(=O)C(=NOC(C)=O)c3cc(C)ccc3C)ccc2-c2ccc(C(=O)c3ccc([N+](=O)[O-])cc3)cc21 [Compound 13]
Solution: 167.1

Problem: What measured Decomposition point goes with CCCC1(CCC)c2cc(C(=O)/C(C)=N/OC(C)=O)ccc2-c2ccc(C(=O)c3ccc([N+](=O)[O-])cc3)cc21 [Compound D-9] ?
Solution: 228.9

Problem: So what does the record say about Decomposition point for CCCC1(CCC)c2cc(C(=O)C(CCSc3ccc(Cl)cc3)=NOC(C)=O)ccc2-c2ccc([N+](=O)[O-])cc21 [Compound D-15] ?
Solution: 202.1

Problem: Consider the compound CCCC1(CCC)c2cc(C(=O)c3ccccc3C)ccc2-c2ccc(/C(C)=N/OC(C)=O)cc21 [Compound 4] and give its measured Decomposition point.
Solution: 277.0

Problem: Returns the measured Decomposition point for the input compound. Input: CCCC1(CCC)c2cc(C(=O)c3ccc([N+](=O)[O-])cc3)ccc2-c2ccc(C(=NOC(C)=O)C(C)C)cc21 (mixture of isomers) [Compound D-8]
Solution: 182.6

Problem: For the compound CCCCCCC1(CCCCCC)c2cc(C(=O)c3ccc(F)cc3)ccc2-c2ccc(/C(CC(C)N(OC(C)=O)C(C)=O)=N\OC(C)=O)cc21 (centres unmarked) [Compound 9] , what Decomposition point is on record?
Solution: 192.7

Problem: I would be grateful if you could share the reported Decomposition point for CCCC1(CCC)c2ccccc2-c2ccc(/C(C)=N/OC(C)=O)cc21 [Compound 15] .
Solution: 280.0

Problem: Return reported Decomposition point; argument: CCn1c2ccc(/C(=N\OC(C)=O)c3ccc(OC(C)COC)cc3C)cc2c2cc([N+](=O)[O-])ccc21 (centres unmarked) [Compound C-2, reference compound]
Solution: 264.0

Problem: Any idea what its Decomposition point is? The compound is CC(=O)ON=C(C)c1ccc2c(c1)Cc1ccccc1-2 [Compound 16]
Solution: 240.9

Problem: For CCCC1(CCC)c2cc(C(CCCCl)=NOC(C)=O)ccc2-c2ccc([N+](=O)[O-])cc21 [Compound D-12] , what is its reported Decomposition point?
Solution: 174.7

Problem: If you can, please state the reported Decomposition point value of CCCC1(CCC)c2cc(C(CCCSc3ccc(Cl)cc3)=NOC(C)=O)ccc2-c2ccc([N+](=O)[O-])cc21 [Compound D-14] .
Solution: 186.9

Problem: Query (compound): CCCCCCC1(CCCCCC)c2cc(C(=O)c3ccc([N+](=O)[O-])cc3)ccc2-c2ccc(C(CC(C)N(OC(C)=O)C(C)=O)=NOC(C)=O)cc21 (racemic) [Compound 12] ; field requested: Decomposition point
Solution: 195.2
